mean fluorescence relative to chimeric antibody reference
# ASSAY_SYSTEM: T1, dog CD47 (dog, UniProt A0A8I3PM61 19-310)
# T1 construct: also called CD47 on dog RBCs
# T1 sequence: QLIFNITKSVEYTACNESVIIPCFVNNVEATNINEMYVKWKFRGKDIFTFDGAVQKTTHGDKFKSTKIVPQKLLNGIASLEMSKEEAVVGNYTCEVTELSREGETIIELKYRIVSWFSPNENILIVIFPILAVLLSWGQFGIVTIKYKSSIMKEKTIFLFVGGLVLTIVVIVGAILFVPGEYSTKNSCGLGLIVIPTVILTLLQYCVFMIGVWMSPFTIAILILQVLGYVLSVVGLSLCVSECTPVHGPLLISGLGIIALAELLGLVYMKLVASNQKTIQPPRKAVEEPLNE
# PROCEDURE_SUMMARY: flow cytometry on RBCs, CHO supernatant 10 ng/ml
Give your result in ratio as a bare value.

{"BINDER": "Clone 21 (pVxK7b-037-hum21-LC / pVxK7b-037-hum21-HC) (antibody, human IgG1, kappa, V domains shown) VH: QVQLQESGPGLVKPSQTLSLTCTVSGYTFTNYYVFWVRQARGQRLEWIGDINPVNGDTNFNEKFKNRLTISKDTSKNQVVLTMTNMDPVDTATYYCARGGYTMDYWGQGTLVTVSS VL: AIQLTQSPSSLSASVGDRVTITCRSSQSLVHSNGNTYLHWYQQKPGQAPRLLIYKVSYRFSGVPDRFSGSGSGTDFTLKISRVEAEDVGVYYCSQNTHVPRTFGQGTKVEIKR", "RECORDED_NUMBER": 1.1}
{"BINDER": "Clone 18 (pVxK7b-037-hum18-LC / pVxK7b-037-hum18-HC) (antibody, human IgG1, kappa, V domains shown) VH: EVQLVQSGAEVKKPGESLRISCKGSGYTFTNYYVFWIRQSPSRGLEWLGDINPVNGDTNFNEKFKNRVTITADKSTSTAYMELSSLRSEDTAVYYCARGGYTMDYWGQGTLVTVSS VL: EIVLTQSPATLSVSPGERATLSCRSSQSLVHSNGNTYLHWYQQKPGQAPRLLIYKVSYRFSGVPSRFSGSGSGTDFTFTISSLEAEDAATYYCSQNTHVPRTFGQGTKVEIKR", "RECORDED_NUMBER": 1.5}
{"BINDER": "Clone 10 (pVxK7b-037-hum10-LC / pVxK7b-037-hum10-HC) (antibody, human IgG1, kappa, V domains shown) VH: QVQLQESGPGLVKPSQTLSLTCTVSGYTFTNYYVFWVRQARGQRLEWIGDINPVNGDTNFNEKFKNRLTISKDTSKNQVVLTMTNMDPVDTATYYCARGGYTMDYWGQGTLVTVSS VL: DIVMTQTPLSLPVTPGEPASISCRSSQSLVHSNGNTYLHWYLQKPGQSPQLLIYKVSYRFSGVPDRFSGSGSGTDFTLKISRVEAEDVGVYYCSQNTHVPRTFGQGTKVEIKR", "RECORDED_NUMBER": 1.1}

Give the measured mean fluorescence relative to chimeric antibody of Clone 12 (pVxK7b-037-hum12-LC / pVxK7b-037-hum12-HC) (antibody, human IgG1, kappa, V domains shown) VH: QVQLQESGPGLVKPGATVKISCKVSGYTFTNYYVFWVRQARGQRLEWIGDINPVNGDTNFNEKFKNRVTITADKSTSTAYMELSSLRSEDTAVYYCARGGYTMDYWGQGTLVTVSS VL: DIVMTQTPLSLPVTPGEPASISCRSSQSLVHSNGNTYLHWYQQKPGKAPKLLIYKVSYRFSGVPDRFSGSGSGTDFTLKISRVEAEDVGVYYCSQNTHVPRTFGQGTKVEIKR .
0.9

Give the measured mean fluorescence relative to chimeric antibody of Clone 6 (pVxK7b-037-hum06-LC / pVxK7b-037-hum06-HC) (antibody, human IgG1, kappa, V domains shown) VH: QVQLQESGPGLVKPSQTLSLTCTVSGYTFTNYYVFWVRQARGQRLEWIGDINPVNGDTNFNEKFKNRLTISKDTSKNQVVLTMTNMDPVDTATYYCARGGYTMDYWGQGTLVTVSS VL: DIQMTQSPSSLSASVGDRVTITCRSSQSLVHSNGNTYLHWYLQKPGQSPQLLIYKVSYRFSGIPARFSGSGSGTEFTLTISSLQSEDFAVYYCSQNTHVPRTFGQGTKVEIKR .
1.1
